Across several studies, compounds have been characterized by their pIC50 on Mast/stem cell growth factor receptor Kit (Homo sapiens, UniProt P10721); a selection follows.
pIC50: −log10 of the molar value.

// known answers, use as guide
1) CC1CN(c2cncnc2)Cc2cc(C(=O)Nc3ccc(CN4CCN(C)CC4)c(C(F)(F)F)c3)ccc21 (stereo not drawn): < 5.00
2) CCCCS(=O)(=O)Nc1ccc(F)c(C(=O)c2c[nH]c3ncc(OC)cc23)c1F: ≥ 5.00

Shifting focus to the compound that follows.
[in] So what pIC50 did `CCCNc1ncnc2[nH]cc(C(=O)c3ccc(Nc4ccc(OC)nc4)nc3F)c12` get with Mast/stem cell growth factor receptor Kit (Homo sapiens, UniProt P10721)?
[out] > 7.00
